The reported numbers originate from the RNAGym collection of RNA variant scans (doi:10.1126/science.aae0568).

B1: tRNA (parent)
chain: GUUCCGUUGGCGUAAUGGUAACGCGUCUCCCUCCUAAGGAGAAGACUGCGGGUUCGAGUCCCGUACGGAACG

# Variants of: B1
# Procedure text: yeast fitness relative to wild type (ratio to wild type); higher = fitter; tRNA-Arg(CCU), competitive growth, 37 C, YPD
This sample holds only a part of the variants without activity.
Record Met whenever yeast fitness is at 0.6 or higher; record Not met when lower.

Completed entries (count: 8):
Change	Category label
G9A C24U A65C	Not met
C5U C11A C24G C27G A36U G38C A70C	Not met
U2G A14C A42C	Not met
U2A U53G	Not met
C5G A43C G67A	Not met
G17A A40C	Met
C5U G9C A36G C60G A70G	Not met
G9A A40C A69U	Met

Please indicate if the recorded yeast fitness for C5U G44C G68C meets or exceeds 0.6.
Met

Please indicate if the recorded yeast fitness for C11G A42G A45U U64C A70C meets or exceeds 0.6.
Not met

Please indicate if the recorded yeast fitness for A42G A45U meets or exceeds 0.6.
Met

Please indicate if the recorded yeast fitness for A20U C46U A69G meets or exceeds 0.6.
Met

Please indicate if the recorded yeast fitness for U13A G52A C55U meets or exceeds 0.6.
Not met

Please indicate if the recorded yeast fitness for G18A A57G G58C meets or exceeds 0.6.
Met
